Items are presented alongside their recorded inhibition.
Experiment: M. tuberculosis growth inhibition, HTS (AID 449762);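 further: bacterial growth assessed after seven days of incubation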
Conditions: M. tuberculosis H37Rv growth inhibition, 7H9 media; at 25 µM; stronger effect = higher value
Hit rate of the full screen: of about 330,000 compounds, about 1,900 (0.58%) were called active. Inconclusive results (about 4%) are left out. Not all results are given here. Entries with a potency or affinity are not part of this list.
OBSERVED_PROPERTY: inhibition

| MOLECULE | OBSERVED_PROPERTY | MEASURED_VALUE |
| --- | --- | --- |
| O=c1c2c(nc3nc(NCc4ccccc4Cl)[nH]n13)CCC2 | inhibition | 21.9% (inactive) |
| O=C(OCc1nc2ccccc2s1)c1ccco1 | inhibition | 53.7% (inactive) |
| Cn1cnnc1SCc1ccc(C(=O)N=Nc2c(O)n(C)c3ccccc23)cc1 | inhibition | -4.97% (inactive) |
| CCn1cc(C2C(C(=O)Nc3cc(C)ccn3)=C(C)NC3=C2C(=O)CC(C)(C)C3)c(C)n1 (centres undefined) | inhibition | 1.96% (inactive) |
| Clc1ccccc1N=C1SCCS1 | inhibition | -6.64% (inactive) |
| COc1ccc(N2C(=O)NC(=O)/C(=C\c3cn(C)c4ccccc34)C2=O)cc1 | inhibition | 3.04% (inactive) |
| Cc1cccc(OCCCCNCc2ccccc2)c1 | inhibition | 0.71% (inactive) |
| Cc1ccc(S(=O)(=O)CC(=O)N2CCN(c3ccc(F)cc3)CC2)cc1 | inhibition | -10.4% (inactive) |
| Cc1nc2nc3c(c(=O)n2[nH]1)CCCC3 | inhibition | -1.58% (inactive) |
